From: patent US5194645A

system: Adj/PC6; experiment: In vivo Adj/PC6 tumour test in mice (LD50, ED90, therapeutic index); details: Adj/PC6 testing, mice, ip
The following compounds are listed with their measured LD50 values.
Please state the figure in mg/kg body weight; there is no need to write the unit.

Solved cases below.
INSERT INTO results (compound, target, assay_endpoint, value) VALUES
  ('CC(C)[NH][Pt]([NH2])([OH])([OH])([Cl])[Cl] [EX 3, trans-[PtCl2 (OH)2 (NH3)((CH3)2 CHNH2)]]', 'Adj/PC6', 'LD50', 18),
  ('[NH2][Pt]([OH])([OH])([Cl])([Cl])[N]1CCOCC1 [EX 7, trans-[PtCl2 (OH)2 NH3 (morpholine)]]', 'Adj/PC6', 'LD50', 82),
  ('CC(C)(C)[NH][Pt]([NH2])([OH])([OH])([Cl])[Cl] [EX 4, trans-[PtCl2 (OH)2 NH3 (t-C4 H9 NH2)]]', 'Adj/PC6', 'LD50', 35);

Req: Could you tell me which LD50 is on file for [NH2][Pt]([OH])([OH])([Cl])([Cl])[NH]C1CCCCC1 [EX 2, trans-[PtCl2 (OH)2 (NH3)(c-C6H11 NH2)]] ?
Resp: 8.8

---

The following compounds are listed with their measured log10 of IC50 values.
test system: A2780; experiment: In vitro cytotoxicity (SRB), A2780; assay type: cell-based, human; conditions: A2780, ovarian cancer, 48 to 96 hours
Scale type: logarithmic (base 10). Underlying IC50 unit: nM.

Solved cases below.
INSERT INTO measurements (compound, value) VALUES
  ('C[NH][Pt]([NH2])([OH])([OH])([Cl])[Cl] [EX 6, trans-[PtCl2 (OH)2 NH3 (MeNH2)]]', 3.79),
  ('[NH2][Pt]([OH])([OH])([Cl])([Cl])[NH]Cc1ccccc1 [B, t[PtCl2 (OH2)NH3 (PhCH2 NH2)]]', 3.03),
  ('[NH2][Pt]([OH])([OH])([Cl])([Cl])[NH]C1CCCC1 [EX 1, trans-[PtCl2 (OH)2 (NH3)(c-C5 H9 NH2)]]', 2.98),
  ('[NH2][Pt]([OH])([OH])([Cl])([Cl])[N]1CCOCC1 [EX 7, trans-[PtCl2 (OH)2 NH3 (morpholine)]]', 4.04),
  ('CC[N](CC)[Pt]([NH2])([OH])([OH])([Cl])[Cl] [EX 10, t-[PtCl2 (OH)2 NH3 (Et2 NH)]]', 3.28);

Now, please, on to the next compound.
Req: Could you tell me which log10 of IC50 is on file for C1CN2CCC1CC2.[NH2][Pt]([OH])([OH])([Cl])[Cl] [EX 11, t-[PtCl2 (OH)2 NH3 (quinuclidine)]] ?
Resp: 3.51
